Listed here are molecules together with their documented Percent Effect.
target: Sialic acid-binding Ig-like lectin 9 (Homo sapiens); assay: Hs-Siglec9 ALPHAscreen SOP 20170721; parameters: scale not given: direction of the effect not stated beside the values; conditions: 10 µM
Value expressed in %; do not type the unit.

Sample answers from the record:
{"MOLECULE": "O=C(Cn1c(=O)n(Cc2ccco2)c2ncccc21)Nc1ccccn1", "Percent Effect [%]": 2.6}
{"MOLECULE": "O=C(NC1(c2cccc(F)c2)CCOCC1)c1ccoc1", "Percent Effect [%]": 5.11}
{"MOLECULE": "CN1CC(=O)N(c2cccc(F)c2)CC12CCN(Cc1cccnc1)C2 (stereo not drawn)", "Percent Effect [%]": 4.25}

Noted for CCc1c(C(=O)N2CCN(CC(N)=O)CC2)cnn1C(C)(C)C : its Percent Effect reads 18.1

Noted for O=C(CC1CC1)NCc1cn2c(n1)CN(C(=O)c1cccnc1)CC2 : its Percent Effect reads 2.88

Noted for CC(=O)c1cc(CC(=O)NCc2c(F)cccc2F)cs1 : its Percent Effect reads 2.88

Noted for COc1ccc2cc(C3CN(C(=O)C4CCOCC4)CCO3)ccc2c1 (stereo not drawn) : its Percent Effect reads 0.48
